Overview of reported GI50 across a group of compounds:
System: EKVX
Assay: NCI tumour cell line growth inhibition, 48 h
Calls of active or inactive are those of the source. No stated cut-off is given here; in the data, active = GI50 up to about 1.1 µM and inactive = higher.

>  <COMPOUND>
CCOc1cc(NC(C)=O)ccc1C(=O)N/N=C/c1ccco1

>  <TARGET OR TEST SYSTEM>
EKVX

>  <GI50>
> 100 µM (inactive)

$$$$
>  <COMPOUND>
COc1ccc(CC2c3c(cc(OC)c(OC)c3OC)CCN2C)cc1OC (stereo not drawn)

>  <TARGET OR TEST SYSTEM>
EKVX

>  <GI50>
> 100 µM (inactive)

$$$$
>  <COMPOUND>
Nc1nc(O)nc2snnc12

>  <TARGET OR TEST SYSTEM>
EKVX

>  <GI50>
> 100 µM (inactive)

$$$$
>  <COMPOUND>
O=C(Nc1ccc2ccccc2c1)Nn1cnnc1

>  <TARGET OR TEST SYSTEM>
EKVX

>  <GI50>
> 100 µM (inactive)

$$$$
>  <COMPOUND>
O=c1[nH]nc(Cc2ccc(Cl)cc2)n1Nc1ccccc1

>  <TARGET OR TEST SYSTEM>
EKVX

>  <GI50>
> 100 µM (inactive)

$$$$
>  <COMPOUND>
CN(C)c1ccc(/C=c2/c3ccccc3n3nc4ccccc4c23)cc1

>  <TARGET OR TEST SYSTEM>
EKVX

>  <GI50>
44.3 µM (inactive)

$$$$
>  <COMPOUND>
CC(C)(O)C1COC2=C1C(=O)c1ccccc1C2=O (stereo not drawn)

>  <TARGET OR TEST SYSTEM>
EKVX

>  <GI50>
32.3 µM (inactive)

$$$$
>  <COMPOUND>
C/C=C(\C)C(=O)OC1/C=C(\C)CC/C=C(\C)CC2OC(=O)C(C)(OC(C)=O)C12 (stereo not drawn)

>  <TARGET OR TEST SYSTEM>
EKVX

>  <GI50>
> 100 µM (inactive)

$$$$

====

System: NCI-H460
Assay: NCI tumour cell line growth inhibition, 48 h
The source made the active and inactive calls. Cut-off read from the data, not from the text of the source: active = GI50 up to about 1.1 µM and inactive = higher.
Overview of reported GI50 across a group of molecules:

>  <MOLECULE>
O=C(CC/C(CC(=O)c1ccc(Br)cc1)=N\O)Nc1ccc(Cl)c(Cl)c1

>  <GI50>
> 100 µM (inactive)

$$$$
>  <MOLECULE>
O=C1OI(C#Cc2ccccc2)c2ccccc21

>  <GI50>
3.18 µM (inactive)

$$$$
>  <MOLECULE>
CC(=O)NCCc1c[nH]c2ccc(Cl)cc12

>  <GI50>
> 100 µM (inactive)

$$$$
>  <MOLECULE>
Br[C@@H]1[C@H]2c3nc4ccccc4nc3[C@@H]1C[C@H]2Br

>  <GI50>
64.6 µM (inactive)

$$$$
>  <MOLECULE>
Cc1ccc(NC(=O)CC(=O)N2N=C(N(C)c3ccccc3)CC2c2ccccc2)cc1 (stereo not given)

>  <GI50>
> 100 µM (inactive)

$$$$
>  <MOLECULE>
CN(C)c1ccc(/C=c2/c3ccccc3n3nc4ccccc4c23)cc1

>  <GI50>
30.1 µM (inactive)

$$$$
>  <MOLECULE>
S=C1CSc2c(cnc3ccccc23)N1

>  <GI50>
56.6 µM (inactive)

$$$$
>  <MOLECULE>
N#CC(C(=O)CCC(=O)Nc1ccc(Cl)cc1)c1ccccc1Cl (stereo not given)

>  <GI50>
> 100 µM (inactive)

$$$$
>  <MOLECULE>
CC(=O)OCC1OC(n2c(C)c(C)cc(C#N)c2=S)C(OC(C)=O)C(OC(C)=O)C1OC(C)=O (stereo not given)

>  <GI50>
> 100 µM (inactive)

$$$$
>  <MOLECULE>
Cc1c2cccc-2c(N(C)C)cc2c1[nH]c1ccccc12

>  <GI50>
9.16 µM (inactive)

$$$$
>  <MOLECULE>
COc1ccc(-c2cc(=O)c3ccc(O)cc3o2)cc1OC

>  <GI50>
25.5 µM (inactive)

$$$$
>  <MOLECULE>
COc1ccc(/N=N/C(=O)NC(CC(C)C)C(=O)NC(CC(C)C)C(=O)O)cc1 (stereo not given)

>  <GI50>
68.9 µM (inactive)

$$$$
>  <MOLECULE>
COc1cc(OC)c2nc3occc3c(OC)c2c1

>  <GI50>
78 µM (inactive)

$$$$
>  <MOLECULE>
O=c1c2cc(Br)cc(Br)c2nc(CCCl)n1CCO

>  <GI50>
> 100 µM (inactive)

$$$$
>  <MOLECULE>
O=c1[nH]nc(-c2ccccc2)n1/N=C\CC/C=N\n1c(-c2ccccc2)n[nH]c1=O

>  <GI50>
> 47.6 µM (inactive)

$$$$
>  <MOLECULE>
CS(=O)(=O)OCCCCOS(=O)(=O)CF

>  <GI50>
56 µM (inactive)

$$$$
>  <MOLECULE>
O=C1C=C(OCCCCl)C(=O)c2c(O)ccc(O)c21

>  <GI50>
1.21 µM (inactive)

$$$$
>  <MOLECULE>
S=C(NCc1ccccc1)c1nc[nH]c1C(=S)NCc1ccccc1

>  <GI50>
4.06 µM (inactive)

$$$$
>  <MOLECULE>
CC(C)(C)OC(=O)NCCCCC(NC(=O)c1ccccc1)C(N)=O (stereo not given)

>  <GI50>
> 100 µM (inactive)

$$$$
>  <MOLECULE>
N#Cc1c(N)c2c(c(-c3ccccc3)c1-c1ccccc1)C(=O)N(N)C2=O

>  <GI50>
> 100 µM (inactive)

$$$$
